Target: His-tagged protein corresponding to amino acids 575-869 of human Tyk2 (Homo sapiens, UniProt P29597)
Sequence (P29597 with tags, fused parts or gaps): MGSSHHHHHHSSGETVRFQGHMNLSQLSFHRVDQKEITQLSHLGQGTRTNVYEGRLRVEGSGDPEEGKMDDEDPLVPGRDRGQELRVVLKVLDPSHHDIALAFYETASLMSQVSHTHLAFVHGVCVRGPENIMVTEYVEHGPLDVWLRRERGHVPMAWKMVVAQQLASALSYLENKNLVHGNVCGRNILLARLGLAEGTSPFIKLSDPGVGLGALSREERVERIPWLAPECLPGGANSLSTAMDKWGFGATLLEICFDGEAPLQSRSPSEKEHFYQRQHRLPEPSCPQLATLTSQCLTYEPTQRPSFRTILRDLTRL
Experiment: Probe displacement assay (scintillation proximity, radiolabeled probe)
Details: 2.5 nM Tyk2 (575-869), 40 nM [3H] probe, 30 minutes at room temperature
pEC50: −log10 of the molar value.
Measurement Label: pEC50

Example entries begin here.
CNc1cc(Nc2cccn(-c3ccc(C#N)cc3)c2=O)nn2c(C(=O)NCC(C)(C)CO)cnc12 = 7.80
CNc1cc(Nc2cccn(-c3ccc(C)nn3)c2=O)nn2c(C(=O)NC3CC3)cnc12 = 8.15
CNc1cc(Nc2cc(F)cn(CCOC)c2=O)nn2c(C(=O)NC3CC3)cnc12 = 7.74

1. CNc1cc(Nc2cccn(-c3cnc(C)cn3)c2=O)nn2c(C(=O)NCC(C)(C)CO)cnc12
2. CC[C@@H](C)NC(=O)c1cnc2c(NC)cc(Nc3cccn(-c4ccccn4)c3=O)nn12
Ask | Would you kindly point out which of 1 and 2 has the smaller pEC50 figure? When you have decided, please share the label of that item.
Reply | 1
(1: 7.82, 2: 8.05)

====

Tested on: IFNα-stimulated Kit225 T cells with STAT-dependent luciferase reporter
Experiment: Kit225 T cell assay, STAT-dependent luciferase reporter, IFNα stimulated
Assay type: cell-based, human
Details: 200 U/mL human recombinant IFNα, 5-6 hours, read-out: IFNa Kit225 Reporter, LE (IC50)
Measurement Label: IC50 (nM)

I. CNc1cc(Nc2cccn(C3CCCCC3)c2=O)nn2c(C(=O)NC3CC3)cnc12
II. CNc1cc(Nc2cccn(C3CCOC3)c2=O)nn2c(C(=O)NC3CCC3)cnc12 (centres unmarked)
Ask | API: POST /compare with I and II ; response names the item with higher IC50. When you have decided, please share the label of that item.
Reply | II

I. CNc1cc(Nc2cccn(-c3ccc(C(C)(C)O)cc3)c2=O)nn2c(C(=O)NC3CC3)cnc12
II. CNc1cc(Nc2cccn(-c3nc4ccccc4[nH]3)c2=O)nn2c(C(=O)NC3CC3)cnc12
III. CCNC(=O)c1cnc2c(NC)cc(Nc3cccn(C)c3=O)nn12
Ask | Sequence the entries by IC50, beginning with the highest number. Provide the ranking by listing each label in its place in the requested order.
Reply | III, II, I
(III: 390 nM, II: 240 nM, I: 110 nM)

====

Tested on: IFNα-stimulated Kit225 T cells with STAT-dependent luciferase reporter
Experiment: Kit225 T cell assay, STAT-dependent luciferase reporter, IFNα stimulated
Assay type: cell-based, human
Conditions: 200 U/mL human recombinant IFNα, 5-6 hours, read-out: IFNa Kit225 Reporter, LE (IC50)
Protocol: Kit225 T cells with a stably-integrated STAT-dependent luciferase reporter were plated in RPMI (GIBCO) containing 10% heat-inactivated FBS (GIBCO) and 100 U/mL PenStrep (GIBCO). The cells were then stimulated with either 20 ng/mL human recombinant IL-23 or 200 U/mL human recombinant IFNα (PBL InterferonSource) for 5-6 hours. Luciferase expression was measured using the STEADY-GLO® Luciferase Assay System (PROMEGA®) according to the manufacturer's instructions.
Measurement Label: IC50 (nM)

CCNC(=O)c1cnc2c(NC)cc(Nc3cccn(-c4cccc(F)n4)c3=O)nn12 = 140
CNc1cc(Nc2cc(F)cn(CCF)c2=O)nn2c(C(=O)NC3CC3)cnc12 = 110
CNc1cc(Nc2nccn(C)c2=O)nn2c(C(=O)NC3CCC3)cnc12 = 4270
CNc1cc(Nc2cccn(-c3ccccc3)c2=O)nn2c(C(=O)N[C@@H]3C[C@@H]3F)cnc12 = 20
CNc1cc(Nc2cccn(-c3cccc(F)n3)c2=O)nn2c(C(=O)NC3CC3)cnc12 = 80
CNc1cc(Nc2cccn(-c3ccn(C4CC4)n3)c2=O)nn2c(C(=O)N[C@@H]3C[C@@H]3F)cnc12 = 20
CNc1cc(Nc2cccn(-c3cnn(C)c3)c2=O)nn2c(C(=O)NC3CC3)cnc12 = 200
CNc1cc(Nc2cccn(-c3ccccn3)c2=O)nn2c(C(=O)NC3CCC3)cnc12 = 50
CNc1cc(Nc2cccn(C3CCC(N4CCOCC4)CC3)c2=O)nn2c(C(=O)NC3CCC3)cnc12 (stereo not drawn) = 30
CNc1cc(Nc2cccn(-c3ccc(F)nc3)c2=O)nn2c(C(=O)NC3(C#N)CC3)cnc12 = 300

1. CCNC(=O)c1cnc2c(NC)cc(Nc3cccn(-c4ccccn4)c3=O)nn12
2. CCCc1ccc(-n2cccc(Nc3cc(NC)c4ncc(C(=O)N[C@@H]5C[C@@H]5F)n4n3)c2=O)nn1
3. CNc1cc(Nc2cccn(C3CCC3)c2=O)nn2c(C(=O)NC3CC3)cnc12
4. CNc1cc(Nc2cccn(-c3ccc(F)cc3)c2=O)nn2c(C(=O)NCC(C)(CO)CO)cnc12
Ask | Sequence the entries by IC50, beginning with the highest number. Provide the ranking by listing each label in its place in the requested order.
Reply | 4, 1, 3, 2
(4: 460 nM, 1: 180 nM, 3: 100 nM, 2: 30 nM)
